Reported FICI Against E. coli, Colistin & 1/2 MIC peptide is given for each of the following substances.
tested on: E. coli ATCC 25922; conditions: Table 15, Leu-Ala scanning
No unit in the answer, please; the number alone is enough.

Worked set:
[[record]]
substance = "KLLKLLKKPLKALK [KL-L9PL12A]"
recorded_result = 0.74

[[record]]
substance = "KLAKLLKKPLKLLK [KL-L3AL9P]"
recorded_result = 0.70


Could you tell me which FICI Against E. coli, Colistin & 1/2 MIC peptide is on file for KLLKLLKKPLKLAK [KL-L9PL13A] ? 0.80

Could you tell me which FICI Against E. coli, Colistin & 1/2 MIC peptide is on file for KALKLLKKPLKLLK [KL-L2AL9P] ? 0.74

Could you tell me which FICI Against E. coli, Colistin & 1/2 MIC peptide is on file for Ac-KLLKALKKPLKLLK-NH2 [KL-L5AL9P] ? 0.86

Could you tell me which FICI Against E. coli, Colistin & 1/2 MIC peptide is on file for KLLKLLKKPAKLLK [KL-L9PL10A] ? 0.80

Could you tell me which FICI Against E. coli, Colistin & 1/2 MIC peptide is on file for KLLKLLKKPLKLLK [KL-L9P] ? 0.74
